- EXPERIMENTAL SYSTEM: HLA-A*26:01
- PROTOCOL DESCRIPTION: IEDB peptide-MHC binding, purified MHC/competitive/fluorescence; filed as Kd, often an IC50 or EC50 that approximates it; bounds were set here for any values at or beyond the usual limits of such assays
- SETUP CONDITIONS: source organism: Bacillus anthracis str. A2012
pKd: −log10 of the molar value.
MEASURED QUANTITY: pKd

INPUT: Which pKd reading was recorded for the sequence KKNHWFILK ?
OUTPUT: ≤ 4.70

---

- EXPERIMENTAL SYSTEM: HLA-B*38:01
- PROTOCOL DESCRIPTION: IEDB peptide-MHC binding, purified MHC/competitive/fluorescence; filed as Kd, often an IC50 or EC50 that approximates it; bounds were set here for any values at or beyond the usual limits of such assays
- SETUP CONDITIONS: source organism: Salmonella enterica subsp. enterica serovar Typhi
MEASURED QUANTITY: Kd

INPUT: Lab note: need Kd for LSEEANWAF on HLA-B*38:01, anyone have it?
OUTPUT: ≥ 20 µM
